Just for reference, patent US20120039802A1 is where these values come from.

# measurement.target: T1, human cMet expressed on 3T3 cells (human, UniProt P08581 25-1390)
# T1 construct: whole, on cells; cells fixed with glutaraldehyde; also called cell surface-expressed human cMet; 3T3 cells that over-express human cMet
# T1 sequence (P08581 25-1390): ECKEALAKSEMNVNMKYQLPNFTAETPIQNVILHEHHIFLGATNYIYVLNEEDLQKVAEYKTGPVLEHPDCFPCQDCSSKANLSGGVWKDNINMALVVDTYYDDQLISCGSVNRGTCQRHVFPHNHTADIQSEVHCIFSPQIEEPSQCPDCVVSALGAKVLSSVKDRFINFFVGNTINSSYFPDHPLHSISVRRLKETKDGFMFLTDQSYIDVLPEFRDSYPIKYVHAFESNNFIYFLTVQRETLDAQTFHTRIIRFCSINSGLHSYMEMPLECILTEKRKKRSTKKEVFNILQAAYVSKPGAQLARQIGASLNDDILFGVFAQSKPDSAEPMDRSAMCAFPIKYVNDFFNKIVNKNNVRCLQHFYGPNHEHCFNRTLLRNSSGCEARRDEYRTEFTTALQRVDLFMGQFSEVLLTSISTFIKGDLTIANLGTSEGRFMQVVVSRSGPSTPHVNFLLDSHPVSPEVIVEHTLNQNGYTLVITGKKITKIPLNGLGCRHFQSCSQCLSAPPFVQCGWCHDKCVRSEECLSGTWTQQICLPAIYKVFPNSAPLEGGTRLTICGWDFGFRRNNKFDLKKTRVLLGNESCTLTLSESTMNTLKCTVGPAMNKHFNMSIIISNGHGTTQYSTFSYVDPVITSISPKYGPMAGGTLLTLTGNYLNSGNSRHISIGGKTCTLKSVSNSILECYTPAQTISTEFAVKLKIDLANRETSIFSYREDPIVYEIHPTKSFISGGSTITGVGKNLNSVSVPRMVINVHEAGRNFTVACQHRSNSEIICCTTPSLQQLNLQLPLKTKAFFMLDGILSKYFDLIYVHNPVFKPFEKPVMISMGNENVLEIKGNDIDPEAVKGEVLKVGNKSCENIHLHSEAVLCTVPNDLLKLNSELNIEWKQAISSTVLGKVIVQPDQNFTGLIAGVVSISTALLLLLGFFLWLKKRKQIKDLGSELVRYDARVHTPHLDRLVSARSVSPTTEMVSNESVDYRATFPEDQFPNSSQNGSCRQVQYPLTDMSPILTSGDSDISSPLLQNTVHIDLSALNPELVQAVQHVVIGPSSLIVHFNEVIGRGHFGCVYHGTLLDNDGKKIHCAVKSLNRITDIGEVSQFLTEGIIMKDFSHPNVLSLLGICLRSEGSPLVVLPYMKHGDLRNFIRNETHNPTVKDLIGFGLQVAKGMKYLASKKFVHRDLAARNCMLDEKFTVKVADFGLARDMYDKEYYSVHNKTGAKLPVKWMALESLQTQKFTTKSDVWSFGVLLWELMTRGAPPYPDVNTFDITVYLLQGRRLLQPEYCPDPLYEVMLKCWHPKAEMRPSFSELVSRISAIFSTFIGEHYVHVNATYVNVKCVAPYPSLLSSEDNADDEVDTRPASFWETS
# protocol.notes: whole cell phage ELISA, 3T3 human cMet vs 3T3
I'd be grateful if you could share measured WC ELISA (fold over background) for these entries.

In: Could you share which WC ELISA (fold over background) value was measured for GDASWCDENSPAAWFYCELWDP [551-D02 peptide-displaying phage (SEQ ID NO: 394)] ?
Out: 1.37 fold

In: Field entry: AGHWICVGPPTFSCQWHGT [330-G09 peptide-displaying phage (SEQ ID NO: 071)]
Out: 1.4 fold

In: Field entry: AQAEWVITSEEFYWKMADFGPP [75-B12 peptide-displaying phage (SEQ ID NO: 478)]
Out: 1.23 fold

In: Field entry: AGWTHCIGPPTFECIPMGT [334-G06 peptide-displaying phage (SEQ ID NO: 052)]
Out: 1.3 fold
